test: S. cerevisiae growth inhibition in permissive medium (OD615), pilot counter-assay for S. cerevisiae lifespan shortening project, permissive growth control (AID 705); details: OD615, 24 h, at 10 µM, hits give high values
MEASURED PARAMETER: growth inhibition (%)
Please reply with the bare figure in % and do not write the unit itself.

CCCCOC(=O)Cn1c(=O)oc2ccc(C)cc21 :: -17.9
Cc1cc(C)c2c(=O)n(CC(=O)N3CCC(N4CCCCC4)CC3)sc2n1 :: 4.7
CCCCc1cc2c(c(NC(C)=O)n1)c(=O)oc1ccccc12 :: -9.7

Now consider the entry below.
Recorded result, CS(=O)(=O)Nc1ccccc1C(=O)O , growth inhibition: -7.19

###

Measured viability increase, listed per entry for reference.
test: doxorubicin toxicity protection in MRP-1 cells – H69AR cells, CellTiter-Glo, duplicate, MRP-1 activator project, pilot screen (AID 807); conditions: H69AR viability with doxorubicin, CellTiter-Glo luminescence; at 10 µM; hits give high values;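 further: compound pretreatment 18-22 h then 72 h combined with doxorubicin; 0% = doxorubicin alone and 100% = vehicle without doxorubicin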
Please reply with the bare figure in % and do not write the unit itself.

Please review the entries below; each comes with its answer.
CC(=O)c1ccc(OCC(O)CN2CCN(Cc3ccc4c(c3)OCO4)CC2)cc1 (configuration not stated) :: -0.65
COc1ccccc1NC(=O)CSc1ncn[nH]1 :: 1.06
CC(C)=C1SC(N2CCN(Cc3ccccc3)CC2)=NC1=O :: -2.86
CC(=O)NCCc1nc2ccccc2[nH]1 :: -0.62
Brc1ccc(-c2noc(CCc3ccccc3)n2)o1 :: 1.58
CCn1cc(C(=O)NCCC2=CCCCC2)c(=O)c2cc(S(=O)(=O)N(C)C)ccc21 :: -4.4
Cc1occc1C(=O)N1CCN(Cc2ccccc2)CC1 :: -1.95
CCOC(=O)CSC(CC)C(=O)Nc1nnc(C(C)C)s1 (configuration not stated) :: -1.46
CSc1nc2ccccc2c(=O)n1N :: -1.1
O=C(c1ccc(CSCc2ccccc2F)o1)N1CCN(c2ccc(N3CCOCC3)nn2)CC1 :: -4.06

Recorded result, O=C(NCc1ccco1)N1c2ccccc2Sc2ccccc21 , viability increase: -4.68

Recorded result, O=C(NC1CCCCCC1)c1c(F)c(F)c(F)c(F)c1F , viability increase: -3.82

###

assay: viability of PTEN-null HCT116 cells – cell-based, HCT116 clonal line, CellTiter-Glo, pilot screen (AID 824); details: HCT116 PTEN-deleted viability, 60 h, at 10 µM, hits give low values;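 further: 0% = 20 µM Hyamine control and 100% = vehicle cell control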
Inconclusive results are not listed.
MEASURED PARAMETER: viability (%)
Please reply with the bare figure in % and do not write the unit itself.

Please review the entries below; each comes with its answer.
COc1ccc(NC(=O)CSc2nnc(-c3ccccc3)n2N)cc1 :: 108
COc1cccc(C2C(C(N)=O)=C(C)Nc3nc(-c4ccccc4Cl)nn32)c1 (stereo unspecified) :: 72.2
Cc1nnc(SCC(=O)Nc2c(Cl)cccc2Cl)[nH]c1=O :: 104
CN(C(=O)c1ccc2c(c1)OCO2)C1(C(=O)NC2CCCCC2)CCCCC1 :: 83.6
Cc1nc(=O)c(-c2ccccc2)c(C)n1CC1CCCO1 (stereo unspecified) :: 96.4

Recorded result, S=c1[nH]nc(CSc2nc3ccccc3s2)o1 , viability: 99.1

Recorded result, Cc1cccc(N2C(=O)CC(N3CCN(c4cccc(C(F)(F)F)c4)CC3)C2=O)c1 (stereo unspecified) , viability: 97.8

Recorded result, O=C(Nc1ccccc1)N1CCN(Cc2ccc3c(c2)OCO3)CC1 , viability: 96.8

Recorded result, O=C(Nc1nnc(-c2ccc(Cl)cc2)o1)c1ccccc1Br , viability: 60.9

Recorded result, COc1ccc(C(=O)NCc2nnc(SC)n2C2CCCCC2)cc1 , viability: 96.4

Recorded result, C=C(C)c1cccc(C(C)(C)NC(=O)NCC2CCCO2)c1 (stereo unspecified) , viability: 96.2

###

assay: viability of PTEN-null HCT116 cells – cell-based, HCT116 clonal line, CellTiter-Glo, pilot screen (AID 824); conditions: HCT116 PTEN-deleted viability, 60 h, at 10 µM, hits give low values;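 further: 0% = 20 µM Hyamine control and 100% = vehicle cell control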
Inconclusive results are not listed.
Rule: viability below 90% gives yes, anything at or above gives no.

# count of solved cases: 4
Cn1c(=O)c2c(nc(CN3CCN(Cc4ccccc4)CC3)n2Cc2ccc(Cl)cc2)n(C)c1=O :: yes
COc1ccccc1-c1cc(C(F)(F)F)nc(N2CCOCC2)n1 :: yes
COc1cccc(N2CCN(c3c4c(nc5ncnn35)CCC4)CC2)c1 :: no
CCC(C)(C(=O)NC1CCCC1)N(Cc1cccs1)C(C)=O (centres undefined) :: no

Is 90% strictly greater than the molecule's reported viability? molecule: Oc1ccccc1-c1nnc(COc2ccc(Cl)cc2Cl)o1 yes

Is 90% strictly greater than the molecule's reported viability? molecule: COC(=O)CN1C(=O)C(O)(CC(=O)c2cccc(Br)c2)c2ccccc21 (centres undefined) yes

Is 90% strictly greater than the molecule's reported viability? molecule: O=C(NCc1ccco1)c1cc(S(=O)(=O)N2CCOCC2)ccc1Cl no

Is 90% strictly greater than the molecule's reported viability? molecule: CCN1C(=C2C(=O)c3ccccc3C2=O)C=Cc2ccccc21 no

Is 90% strictly greater than the molecule's reported viability? molecule: CCCCC(=O)NCCc1cc2c(C)ccc(C)c2[nH]c1=O no

Is 90% strictly greater than the molecule's reported viability? molecule: CC1(C)CC(=O)C2(CC3=C(CC(C)(C)CC3=O)O2)C(=O)C1 no

Is 90% strictly greater than the molecule's reported viability? molecule: Cc1cc(=S)cc(C)n1CCCn1ccnc1 no

Is 90% strictly greater than the molecule's reported viability? molecule: Cc1ccc(C2CC(c3ccc(C)cc3)n3nc(N)nc3N2)cc1 (centres undefined) no

###

assay: RAM signaling pathway blockade in yeast – S. cerevisiae, Pdr1DBD-CYC8 efflux-inhibited sensitized strain, primary screen (AID 1298);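 further: 0% = DMSO untreated cells without growth and 100% = 10 µM 1-NA-PP1 full growth; higher means more yeast growth rescued from 5-FOA killing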; settings: S. cerevisiae cbk1-as DSE1-URA3 strain, 5-FOA growth OD615, 2 d; at 50 µM; hits give high values
Measured RAM network inhibition, listed per entry for reference.
Please reply with the bare figure in % and do not write the unit itself.

Please review the entries below; each comes with its answer.
CCOc1ccc(C2Oc3nc(SC)nnc3-c3ccccc3N2C(C)=O)cc1OC (centres undefined) :: 4.23
CCOCCn1c(SCc2ccc(F)cc2)nc2c1c(=O)[nH]c(=O)n2C :: -0.32
Cc1ccccc1CSc1nnc(C)c(=O)[nH]1 :: 1.17
Cc1ccc(S(=O)(=O)N(CC(=O)N2CCC(C(N)=O)CC2)Cc2ccc(F)cc2)cc1 :: 1.49
COc1cccc(-c2nc(CS(=O)(=O)CC(=O)N3CCN(c4ccccn4)CC3)c(C)o2)c1 :: 5.35
CCCCc1ccc(NC(=O)C2CCCO2)cc1 (centres undefined) :: 3.17
O=C(CSc1nnc2ccccn12)N1CCc2ccccc2C1 :: 2.11
CCN(CC)C(=O)Oc1ccc(NC(C)=O)cc1 :: 1.82

Recorded result, COc1ccc(CNC(=O)CCS(=O)(=O)c2cccc3nonc23)cc1 , RAM network inhibition: 6.09

Recorded result, CCOn1c(=O)c(=O)n(OCc2ccccc2)c2ccccc21 , RAM network inhibition: 3.12

Recorded result, O=C(c1nnc(Cc2ccc(Cl)cc2)o1)N1CCc2ccccc2C1 , RAM network inhibition: 4.39

###

assay: MRP1 drug-resistance reversers in H69AR cells – cell-based, doxorubicin co-treatment, pilot screen (AID 601); details: H69AR cells + 2 uM doxorubicin, CellTiter-Glo, 72 h; at 10 µM; hits give high values
MEASURED PARAMETER: differential viability (reversal) (%)
Please reply with the bare figure in % and do not write the unit itself.

Please review the entries below; each comes with its answer.
CCOC(=O)N1CCN(C(=O)c2c(-c3ccccc3)noc2C)CC1 :: 5.67
Cc1c(NC(=O)C2CCCCN2S(=O)(=O)c2ccc(Cl)cc2)c(=O)n(-c2ccccc2)n1C (configuration not stated) :: -6.92
COc1ccc(-c2nc(CCNC(=O)c3ccco3)cs2)cc1OC :: 0.52

Recorded result, Cc1ccc(C)n1-c1ccc(N2CCOCC2)cc1 , differential viability (reversal): -15.4

Recorded result, Cc1ccnc(NC(=O)C2CCC(CNc3c(N4CCCC4)c(=O)c3=O)CC2)c1 (configuration not stated) , differential viability (reversal): 1.23

Recorded result, COCCNC(=O)CN(C)S(=O)(=O)c1ccc(Br)cc1 , differential viability (reversal): 5.54

Recorded result, c1ccc(C(Cc2nc(-c3ccccn3)no2)c2ccccc2)cc1 , differential viability (reversal): -11.8

Recorded result, O=C(COc1ccc(=O)n(-c2ccccc2)n1)Nc1ccccc1 , differential viability (reversal): 6.32

Recorded result, CCCCn1c(SCC(=O)OCC)nc2c1c(=O)[nH]c(=O)n2C , differential viability (reversal): 0.46

Recorded result, CCOc1ccc(N(CC(=O)NC2CCCC(C)C2C)S(=O)(=O)c2c(C)noc2C)cc1 (configuration not stated) , differential viability (reversal): 6.81

Recorded result, CC(=O)Nc1cccc(Oc2nc(C)cc(C)c2C#N)c1 , differential viability (reversal): -4.33

Recorded result, COc1ccccc1CNC(=O)C1CCCN(S(=O)(=O)c2cccc3cccnc23)C1 (configuration not stated) , differential viability (reversal): -0.39

Recorded result, CCOc1ccc(NC(=O)CCN2CCN(c3ccccc3)CC2)cc1 , differential viability (reversal): 4

Recorded result, CC12CN3CC(C)(CN(C1)C3c1ccc(Cl)cc1Cl)C2=O (configuration not stated) , differential viability (reversal): -7.23

Recorded result, Cc1cccc(-n2ncc3c(NCCCn4ccnc4)ncnc32)c1 , differential viability (reversal): 3.66

Recorded result, O=C(Nc1nnc(N2CCCCCC2)s1)c1cc(-c2ccc(Br)cc2)on1 , differential viability (reversal): 13.1

Recorded result, CCOC(=O)c1oc2c(CN3CCN(C)CC3)c(O)ccc2c(=O)c1-c1ccccc1OC , differential viability (reversal): -0.225

Recorded result, CCOC(=O)C1CCCN(C(=O)c2cn(C)c(=O)c3cc(OC)c(OC)cc23)C1 (configuration not stated) , differential viability (reversal): -9.49

Recorded result, CCc1ccc(C2CC(c3cccc(OC)c3)n3nc(N)nc3N2)cc1 (configuration not stated) , differential viability (reversal): 7.42

Recorded result, CCCCn1c2c(c3ccccc31)CCc1nonc1-2 , differential viability (reversal): -2.16

Recorded result, COC(=O)c1cn(C(=O)c2ccc(Br)o2)c2ccccc12 , differential viability (reversal): -1.34

Recorded result, CCOC(=O)N1CCC(NC(=O)c2ccc(CS(=O)(=O)c3c(Cl)cccc3Cl)o2)CC1 , differential viability (reversal): 6.95
